A collection of compounds and their measured GI50
Test system: SF-268
Experiment: NCI tumour cell line growth inhibition, 48 h
Calls of active or inactive are those of the source. No stated cut-off is given here; in the data, active = GI50 up to about 1.1 µM and inactive = higher.

{"compound": "O=C1Cc2c(-c3ccccc3)cc(-c3ccccc3)nc2-c2ccccc2N1", "GI50": "5.7 µM (inactive)"}
{"compound": "O=C1CC(c2ccccc2)n2cccc21 (stereo not given)", "GI50": "> 100 µM (inactive)"}
{"compound": "COC(=O)c1ccc(Oc2nc3ccc(C(F)(F)F)cc3nc2-c2ccccc2)cc1", "GI50": "> 100 µM (inactive)"}
{"compound": "COc1ccc(N2C(=O)c3c(c4[nH]c5ccc(OC)cc5c4c4ccc(C(C)(C)C)cc34)C2=O)cc1", "GI50": "> 100 µM (inactive)"}

The recorded GI50 for entry Fc1ccc(/C=C2\COCC3=C2NC(=S)NC3c2ccc(F)cc2)cc1 (stereo not given) equals 17.7 µM (inactive)

Value of measured GI50 for the entry `Brc1c(C#CCC2CCCCC2)ccc(C#CCC2CCCCC2)c1Br` : > 100 µM (inactive)

Measured GI50 of `Cc1cc2[nH]c3c(C#N)c(-c4ccccc4)c(/C=N/c4ccc(Cl)cc4)c(=O)n3c2cc1C` : > 100 µM (inactive)

Briefly, GI50 measured for `OC[C@@H](O)[C@H]1NC[C@@H](O)[C@H]1O` : > 100 µM (inactive)

Form field GI50, entry `N#CC(C#N)=C(C(C#N)C#N)C(C#N)C#N` : > 100 µM (inactive)

GI50 reading for `O=C1CN(c2cccc(Cl)c2)C(=O)CN1CCN1CC(=O)N(c2cccc(Cl)c2)CC1=O` : > 100 µM (inactive)

* * *

System: RXF 393
Assay: NCI tumour cell line growth inhibition, 48 h
Activity calls are given as the source filed them. Rule as the data show it: active = GI50 up to about 1.1 µM and inactive = higher.
Your response should consist of one outcome taken from active, inactive

{"molecule": "C[C@H]1C2Cc3cc(O)ccc3[C@@]1(C)CCN2CCc1ccc(N)cc1", "target.of.assay": "RXF 393", "answer.label": "inactive"}

Prompt line: # lookup: test call for `CCOc1cc(/C=C2\N=C(c3ccccc3)N(c3nc4ccccc4s3)C2=O)ccc1O`
Response line: inactive

Prompt line: Per the assay record, what outcome was assigned to `O=C1c2ccccc2S[C@@H](O)[C@@H]2CCCN12` ?
Response line: inactive

Prompt line: Tell me the assay call for `O=C1C(=O)N(c2nccs2)C(=O)C(=O)C1c1nc2ccccc2s1` please.
Response line: inactive

Prompt line: For Cc1ccccc1C(C#N)C(=O)C(=O)Nc1nc([N+](=O)[O-])cs1 (configuration not stated) , which call appears in the assay record?
Response line: inactive

Prompt line: What classification did `COC1=C(OC)C(=O)C(Cc2c(C)nc3sccn23)=C(C)C1=O` end up with in this test?
Response line: inactive

Prompt line: Hi team, can someone confirm the assay call for Nc1ccc(C(=O)CC(N)C(=O)O)cc1O (configuration not stated) ?
Response line: inactive

Prompt line: Answer briefly: the call reported for CC(C(O)c1ccccc1)[N+](=O)[O-] (configuration not stated) in this assay.
Response line: inactive

Prompt line: Which outcome was entered for the molecule `COC(=O)c1ccc(Oc2nc3ccc(C(F)(F)F)cc3nc2-c2ccccc2)cc1` in this test?
Response line: inactive

Prompt line: Please state the recorded outcome for this molecule: CN(C)c1ccc(C(C#N)N2CCCN(C(C#N)c3ccc(N(C)C)cc3)C2c2ccc(N(C)C)cc2)cc1 (configuration not stated)
Response line: inactive

Prompt line: Name the outcome recorded for CC1(Cc2ccccc2)NC(=S)NC1=O (configuration not stated) in the assay.
Response line: inactive
